tgt: Lp-PLA2 in human plasma (Homo sapiens)
Construct: This assay may detect the activity of Lp-PLA2 in human plasma; from tissue; host or cells: pooled human plasma
Sequence (Q13093 22-441): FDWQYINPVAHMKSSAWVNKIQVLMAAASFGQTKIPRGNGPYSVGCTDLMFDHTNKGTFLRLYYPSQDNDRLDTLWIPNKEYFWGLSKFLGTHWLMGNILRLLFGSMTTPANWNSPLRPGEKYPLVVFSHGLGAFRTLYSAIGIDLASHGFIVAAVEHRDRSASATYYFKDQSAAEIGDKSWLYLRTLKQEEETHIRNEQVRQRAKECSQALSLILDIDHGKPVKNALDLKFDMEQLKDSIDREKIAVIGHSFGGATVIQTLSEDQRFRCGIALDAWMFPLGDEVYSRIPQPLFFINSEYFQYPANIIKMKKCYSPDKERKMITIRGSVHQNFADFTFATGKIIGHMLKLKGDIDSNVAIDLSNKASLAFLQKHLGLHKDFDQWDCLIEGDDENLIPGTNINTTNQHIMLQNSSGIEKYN
experiment notes: Lp-PLA2 human plasma assay (Thio-PAF assay)
Type: biochemical
study conditions: pooled human plasma, 2-thio-PAF substrate; read-out: pIC50 in the thio-PAF assay (converted)
Counter-ions that a name gives are not always drawn.
IC50 listing for selected compounds.

CN1CCn2c1cc(OCc1ccc(Oc3ccc(C(F)(F)F)cc3)c(C#N)c1)nc2=O [Example E24, trifluoroacetic acid salt] : ≤ 1000 nM
CN1CCn2c1cc(OCc1ccc(Oc3ccc(Cl)nc3)c(C#N)c1)nc2=O [Example 100] : ≤ 1000 nM
CN1CCn2c1cc(OCc1cc(F)c(Oc3ccc(Cl)c(F)c3)c(F)c1)nc2=O [Example E86] : ≤ 100 nM
N#Cc1cc(COc2cc3n(c(=O)n2)CCN3)ccc1Oc1ccc(Cl)c(C(F)(F)F)c1 [Example 96] : ≤ 100 nM
CC(C)N1CCn2c1cc(OCc1ccc(Oc3ccc(Cl)c(C(F)(F)F)c3)cc1)nc2=O [Example E59] : ≤ 100 nM

Result for O=c1nc(OCc2ccc(Oc3ccnc(C(F)(F)F)c3)c(F)c2)cc2n1CCN2 [Example 119] , tested on Lp-PLA2 in human plasma (Homo sapiens), IC50: ≤ 100 nM

Result for CN1CCn2c1cc(OCc1ccc(Oc3cccc(C(F)(F)F)c3)c(F)c1)nc2=O [Example E20] , tested on Lp-PLA2 in human plasma (Homo sapiens), IC50: ≤ 1000 nM

Result for CN1CCn2c1cc(OCc1ccc(Oc3ccc(Cl)c(C#N)c3)c(C#N)c1)nc2=O [Example 114] , tested on Lp-PLA2 in human plasma (Homo sapiens), IC50: ≤ 100 nM

Result for CC(C)N1CCn2c1cc(OCc1ccc(F)c(F)c1)nc2=O [Example E47, trifluoroacetic acid salt] , tested on Lp-PLA2 in human plasma (Homo sapiens), IC50: ≤ 1000 nM
